The measured values listed here are drawn from patent US20260116983A1.

# targetSystem: T1, human uPAR (recombinant protein used in ELISA and BLI) (human, UniProt Q03405 23-305, limits assumed)
# T1 construct: Whole entry named; also called biotinylated human uPAR
# T1 sequence (Q03405 23-305 limits assumed): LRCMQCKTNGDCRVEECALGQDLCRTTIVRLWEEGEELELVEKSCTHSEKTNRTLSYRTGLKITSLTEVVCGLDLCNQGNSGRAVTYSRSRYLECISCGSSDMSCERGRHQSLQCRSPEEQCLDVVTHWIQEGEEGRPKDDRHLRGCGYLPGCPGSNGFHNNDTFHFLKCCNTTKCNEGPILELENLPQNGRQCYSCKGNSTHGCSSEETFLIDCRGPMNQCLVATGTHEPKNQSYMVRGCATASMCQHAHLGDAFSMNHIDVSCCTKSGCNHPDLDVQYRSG
# assayRemarks: BLI (Octet HTX)
Entries annotated with measured log10 of Kd
Hi team, quick reminder: these entries are log10 of Kd (µM).

Solved entries:
Task: # query: log10 of Kd of entry 11857 HC2 + LC2 (humanized) (antibody, V domains shown, detected with anti-human Fc antibody) VH: EVQLVQSGAEVKKPGASVKVSCKASGYTFTDYYMNWVRQAPGKSLEWMGNINPNNGGTDYSQKFQGRVTITVDTSASTAYMELSSLRSEDTAVYYCARSYGSRFPYWGLGTLVTVSS VL: DIQMTQSPSSLSASVGDRVTITCRASQDITNYLSWYQQKPGGTVKLLIFYTAVLQSGFPSRFSGSGSGADFTLTISSLQPEDVATYYCQQGHTLPWTFGGGTKVEIK
Result: -1.34

Task: Field request: log10 of Kd | item: 3159 HC3 + LC3 (humanized) (antibody, V domains shown, detected with anti-human Fc antibody) VH: QITLKESGPTLVKPTQTLTLTCTLSGFSLSTSGMGVSWIRQPPGKALEWLAHIYWDDDKRYNPSLKSRLTITKDASKDQVVLTMTNMDTVDTATYYCGRRVRNYFSGTSYWYFDVWGTGTLVTVSS VL: DIVMTQSPLSLPVTPGEPASISCRSSQNILHRTGNTYLDWYLQKPGQSPQLLIYKVSNRFSGVPDRFSGSGSGTDFTLKISRVEAEDVGVYYCFQGSYVPFTFGQGTKLEIK
Result: -2.13

Task: So what's the measured log10 of Kd for this one? Antibody 11857 (antibody, human IgG1, V domains shown) VH: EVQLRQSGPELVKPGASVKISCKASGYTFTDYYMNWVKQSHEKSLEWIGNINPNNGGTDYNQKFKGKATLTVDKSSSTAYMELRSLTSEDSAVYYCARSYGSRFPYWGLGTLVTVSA VL: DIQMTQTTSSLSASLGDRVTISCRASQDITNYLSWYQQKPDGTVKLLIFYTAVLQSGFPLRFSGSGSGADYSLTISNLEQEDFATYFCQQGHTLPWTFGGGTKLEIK
Result: -2.20

Task: Could you share which log10 of Kd value was measured for 11857 HC3 + LC2 (humanized) (antibody, V domains shown) VH: EVQLVQSGAEVKKPGASVKVSCKASGYTFTDYYMNWVRQAPGKSLEWMGNINPNNGGTDYNQKFQGRVTLTVDTSISTAYMELSRLRSDDTVVYYCARSYGSRFPYWGLGTLVTVSS VL: DIQMTQSPSSLSASVGDRVTITCRASQDITNYLSWYQQKPGGTVKLLIFYTAVLQSGFPSRFSGSGSGADFTLTISSLQPEDVATYYCQQGHTLPWTFGGGTKVEIK ?
Result: -1.12

***
Task: What log10 of Kd value was documented for this binder, 11857 HC3 + LC1 (humanized) (antibody, V domains shown, detected with anti-human Fc antibody) VH: EVQLVQSGAEVKKPGASVKVSCKASGYTFTDYYMNWVRQAPGKSLEWMGNINPNNGGTDYNQKFQGRVTLTVDTSISTAYMELSRLRSDDTVVYYCARSYGSRFPYWGLGTLVTVSS VL: DIQMTQSPSSLSASVGDRVTITCRASQDITNYLSWYQQKPGGTVKLLLYYTAVLQSGFPSRFSGSGSGADYTLTISSLQPEDFATYYCQQGHTLPWTFGGGTKVEIK ?
Result: -0.83
